# assay_info: qHTS assay to identify small molecule antagonists of the peroxisome proliferator-activated receptor gamma (PPARg) signaling pathway - cell viability counter screen (AID 743194); further: nearly all actives have a fitted effect of over 55% in size
# measurement_parameters: PPARg-bla HEK293H viability, CellTiter-Glo luminescence, 17 h; co-treated with 50 nM rosiglitazone unless noted; series mostly up to 62.6 µM
Records with an inconclusive call do not appear. Active and inactive are the calls of the source. The call rests on the fitted dose curve; in most records, active means well fitted cell-killing curve with a large enough effect in the repeat runs; inconclusive means weak or mixed curves, or effect the other way; inactive means no such curve, though single readings can be large or run the other way.
Hello, when you answer, please use one of the following outcomes: True for active, False for inactive

Query block: Hi team, can someone confirm the assay call for O=C(O)c1cc[c]([Hg][Cl])cc1 ?
Result block: True

Query block: Hi team, can someone confirm the assay call for O=C(CCCN1CCC2(CC1)C(=O)NCN2c1ccccc1)c1ccc(F)cc1 ?
Result block: False

Query block: Hi team, can someone confirm the assay call for CC(=O)Nc1ccc2c(c1)Cc1ccccc1-2 ?
Result block: False

Query block: Hi team, can someone confirm the assay call for CCCCN(CCCC)C(=S)[S-].CCCCN(CCCC)C(=S)[S-].[Zn+2] ?
Result block: True

Query block: Hi team, can someone confirm the assay call for O=C1c2ccccc2C(=O)C1C(=O)C(c1ccccc1)c1ccc(Cl)cc1 (stereo unspecified) ?
Result block: True

Query block: Hi team, can someone confirm the assay call for CN(C)C(=S)[S-].CN(C)C(=S)[S-].[Cu+2] ?
Result block: True

Query block: Hi team, can someone confirm the assay call for CC1(C)[C@H](C(=O)O[C@H](C#N)c2cccc(Oc3ccccc3)c2)[C@@H]1/C=C(\Cl)C(F)(F)F ?
Result block: False

Query block: Hi team, can someone confirm the assay call for COc1ccc(/C(=C/C(=O)N2CCOCC2)c2ccc(Cl)cc2)cc1OC ?
Result block: False

Query block: Hi team, can someone confirm the assay call for N#CNC#N ?
Result block: False

Query block: Hi team, can someone confirm the assay call for CC1(c2ccc(Oc3ccccc3)cc2)OC(=O)N(Nc2ccccc2)C1=O (stereo unspecified) ?
Result block: True

Query block: Hi team, can someone confirm the assay call for CCCN(CCC)c1c([N+](=O)[O-])cc(S(N)(=O)=O)cc1[N+](=O)[O-] ?
Result block: True

----------
# assay_info: qHTS assay to identify small molecule antagonists of the TGF-beta/Smad signaling pathway - cell viability counter screen (AID 1346824); further: nearly all actives have a fitted effect of over 50% in size; further: potency means the concentration at half of the fitted maximal effect
# measurement_parameters: SBE-bla HEK293T viability, CellTiter-Glo luminescence; series mostly up to 76.8 µM
Inconclusive results are not listed. The source made the active and inactive calls. Calls come from the whole dose curve; as a rule, active = well fitted cell-killing curve with a large enough effect in the repeat runs; inconclusive = weak or mixed curves; inactive = flat fitted curve, though single readings scatter.
recorded_metric: Potency

smiles_notation: O=C1C=CC(=O)c2ccccc21
result: 24.5 µM (active)
--
smiles_notation: O=C(NC(=O)c1c(F)cccc1F)Nc1cc(Cl)c(OC(F)(F)C(F)F)c(Cl)c1
result: inactive
--
smiles_notation: Nc1ccccc1C(=O)Oc1ccc2ccccc2c1
result: inactive
--
smiles_notation: Clc1ccc(CO/N=C(\Cn2ccnc2)c2ccc(Cl)cc2Cl)c(Cl)c1
result: inactive
--
smiles_notation: c1cc[c]([Sb]([c]2ccccc2)[c]2ccccc2)cc1
result: inactive

// next item, Potency requested
Note to self: Potency recorded for O=C(CCl)C(Cl)Cl was inactive

----------
# assay_info: qHTS assay to identify small molecule antagonists of the sonic hedgehog signaling (Shh) pathway - cell viability counter screen (AID 1259367); further: nearly all actives have a fitted effect of over 55% in size
# measurement_parameters: NIH/3T3 Gli1-Luc viability, CellTiter-Fluor, 24 h; series mostly up to 92.4 µM
Results filed as inconclusive are left out. Activity calls are given as the source filed them. Calls come from the whole dose curve; as a rule, active = well fitted cell-killing curve with a large enough effect in the repeat runs; inconclusive = weak or mixed curves, or effect the other way; inactive = no such curve, though single readings can be large or run the other way.
Hello, when you answer, please use one of the following outcomes: TRUE for active, FALSE for inactive

Query block: Hi team, can someone confirm the assay call for CC(Cc1ccc(C(C)(C)C)cc1)CN1C[C@@H](C)O[C@@H](C)C1 (some centres undefined) ?
Result block: FALSE

Query block: Hi team, can someone confirm the assay call for CC(C)CC(C)Nc1ccc(Nc2ccccc2)cc1 (centres undefined) ?
Result block: TRUE

Query block: Hi team, can someone confirm the assay call for CC(C)C(=O)Cl ?
Result block: FALSE

Query block: Hi team, can someone confirm the assay call for O=C(O)C1C2CCC(O2)C1C(=O)O (centres undefined) ?
Result block: TRUE

Query block: Hi team, can someone confirm the assay call for Cc1c(Cl)c(=O)oc2cc(OP(=O)(OCCCl)OCCCl)ccc12 ?
Result block: FALSE

Query block: Hi team, can someone confirm the assay call for Oc1ccc(C(=C(Cl)Cl)c2ccc(O)cc2)cc1 ?
Result block: FALSE

Query block: Hi team, can someone confirm the assay call for CCCCCCCCCCCCBr ?
Result block: FALSE

Query block: Hi team, can someone confirm the assay call for Cc1cc(C)c(C2=C(OC(=O)CC(C)(C)C)C3(CCCC3)OC2=O)c(C)c1 ?
Result block: FALSE

Query block: Hi team, can someone confirm the assay call for Cl/C=C\CCl ?
Result block: FALSE

Query block: Hi team, can someone confirm the assay call for CC(O)C#N (centres undefined) ?
Result block: FALSE

Query block: Hi team, can someone confirm the assay call for Cc1cc(SCc2sc(-c3ccc(C(F)(F)F)c(F)c3)nc2C)ccc1OCC(=O)O ?
Result block: TRUE

Query block: Hi team, can someone confirm the assay call for N#Cc1ccccc1Cl ?
Result block: FALSE

Query block: Hi team, can someone confirm the assay call for c1ccc(OCC2CO2)cc1 (centres undefined) ?
Result block: FALSE

Query block: Hi team, can someone confirm the assay call for O=C(O)COc1nc(Cl)c(Cl)cc1Cl ?
Result block: FALSE

Entry source: PubChem BioAssay (Tox21)
